test: Phase 1 single-dose plasma pharmacokinetics in subjects with normal hepatic function, mild or moderate hepatic impairment; type: in vivo, human; details: human, plasma, po, 200 mg, Mild Hepatic Impairment; 200 mg single oral dose; read-out: Cmax, Arithmetic Mean
READOUT KIND: Cmax (ng/mL)
Supply the numeric figure in ng/mL, leaving out any unit text.

// query Return reported Cmax; argument: N#CC1(c2ccc(NC(=O)c3cccnc3NCc3ccncc3)cc2)CCCC1 [Rivoceranib]
// result 291

---

experiment: Phase 1 single-dose plasma pharmacokinetics in subjects with normal hepatic function, mild or moderate hepatic impairment; assay type: in vivo, human; conditions: human, plasma, po, 200 mg, Mild Hepatic Impairment; 0.5 h; 200 mg single oral dose; read-out: Plasma concentration, Geometric Mean
READOUT KIND: concentration at 0.5 h
Give me the value, and tack the unit on after it.

// query Return reported concentration at 0.5 h; argument: `N#CC1(c2ccc(NC(=O)c3cccnc3NCc3ccncc3)cc2)CCCC1`
// result 29.4 ng/mL

---

assay: Phase 1 single-dose plasma pharmacokinetics in subjects with normal hepatic function, mild or moderate hepatic impairment; format: in vivo, human; conditions: human, plasma, po, 200 mg, Normal Hepatic Function; 36 h; 200 mg single oral dose; read-out: Plasma concentration, Arithmetic Mean
READOUT KIND: concentration at 36 h (ng/mL)
Supply the numeric figure in ng/mL, leaving out any unit text.

// query Return reported concentration at 36 h; argument: `N#CC1(c2ccc(NC(=O)c3cccnc3NCc3ccncc3)cc2)CCCC1`
// result 23.9

---

test: Phase 1 study: unbound plasma concentration and fraction unbound (protein binding); type: in vivo, human; conditions: human, plasma, po, 200 mg, Mild Hepatic Impairment; 24 h; 200 mg single oral dose; read-out: Fraction Unbound, Median
READOUT KIND: fraction unbound at 24 h
Please reply with the value in numeric form only.

// query Return reported fraction unbound at 24 h; argument: `N#CC1(c2ccc(NC(=O)c3cccnc3NCc3ccncc3)cc2)CCCC1`
// result 0.0174

---

experiment: Phase 1 single-dose plasma pharmacokinetics in subjects with normal hepatic function, mild or moderate hepatic impairment; type: in vivo, human; conditions: human, plasma, po, 200 mg, Moderate Hepatic Impairment; 200 mg single oral dose; read-out: VZ/F, Geometric Mean
READOUT KIND: Vd/F (L)
Supply the numeric figure in L, leaving out any unit text.

// query Return reported Vd/F; argument: `N#CC1(c2ccc(NC(=O)c3cccnc3NCc3ccncc3)cc2)CCCC1`
// result 2020

---

test: Phase 1 single-dose plasma pharmacokinetics in subjects with normal hepatic function, mild or moderate hepatic impairment; assay type: in vivo, human; conditions: human, plasma, po, 200 mg, Normal Hepatic Function; 200 mg single oral dose; read-out: AUC0-∞, Geometric Mean
READOUT KIND: AUC(0-inf)
Give me the value, and tack the unit on after it.

// query Return reported AUC(0-inf); argument: N#CC1(c2ccc(NC(=O)c3cccnc3NCc3ccncc3)cc2)CCCC1 [Rivoceranib]
// result 3050 ng·h/mL

---

assay: Phase 1 study: unbound plasma concentration and fraction unbound (protein binding); assay type: in vivo, human; conditions: human, plasma, po, 200 mg, Moderate Hepatic Impairment; 24 h; 200 mg single oral dose; read-out: Unbound Concentration, Geometric Mean
READOUT KIND: concentration at 24 h (ng/mL)
Supply the numeric figure in ng/mL, leaving out any unit text.

// query Return reported concentration at 24 h; argument: `N#CC1(c2ccc(NC(=O)c3cccnc3NCc3ccncc3)cc2)CCCC1`
// result 0.82

---

experiment: Phase 1 study: unbound plasma concentration and fraction unbound (protein binding); format: in vivo, human; conditions: human, plasma, po, 200 mg, Moderate Hepatic Impairment; 4 h; 200 mg single oral dose; read-out: Fraction Unbound, Median
READOUT KIND: fraction unbound at 4 h
Please reply with the value in numeric form only.

// query Return reported fraction unbound at 4 h; argument: `N#CC1(c2ccc(NC(=O)c3cccnc3NCc3ccncc3)cc2)CCCC1`
// result 0.0419

---

assay: Phase 1 study: unbound plasma concentration and fraction unbound (protein binding); format: in vivo, human; conditions: human, plasma, po, 200 mg, Mild Hepatic Impairment; 4 h; 200 mg single oral dose; read-out: Unbound Concentration, Arithmetic Mean
READOUT KIND: concentration at 4 h (ng/mL)
Supply the numeric figure in ng/mL, leaving out any unit text.

// query Return reported concentration at 4 h; argument: `N#CC1(c2ccc(NC(=O)c3cccnc3NCc3ccncc3)cc2)CCCC1`
// result 3.78

---

assay: Phase 1 study: unbound plasma concentration and fraction unbound (protein binding); type: in vivo, human; conditions: human, plasma, po, 200 mg, Mild Hepatic Impairment; 4 h; 200 mg single oral dose; read-out: Fraction Unbound, Median
READOUT KIND: fraction unbound at 4 h
Please reply with the value in numeric form only.

// query Return reported fraction unbound at 4 h; argument: N#CC1(c2ccc(NC(=O)c3cccnc3NCc3ccncc3)cc2)CCCC1 [Rivoceranib]
// result 0.0232

---

assay: Phase 1 single-dose plasma pharmacokinetics in subjects with normal hepatic function, mild or moderate hepatic impairment; type: in vivo, human; conditions: human, plasma, po, 200 mg, Mild Hepatic Impairment; 200 mg single oral dose; read-out: tmax, Arithmetic Mean
READOUT KIND: Tmax (h)
Supply the numeric figure in h, leaving out any unit text.

// query Return reported Tmax; argument: `N#CC1(c2ccc(NC(=O)c3cccnc3NCc3ccncc3)cc2)CCCC1`
// result 3.6

---

assay: Phase 1 single-dose plasma pharmacokinetics in subjects with normal hepatic function, mild or moderate hepatic impairment; type: in vivo, human; conditions: human, plasma, po, 200 mg, Mild Hepatic Impairment; 200 mg single oral dose; read-out: tmax, Geometric Mean
READOUT KIND: Tmax (h)
Supply the numeric figure in h, leaving out any unit text.

// query Return reported Tmax; argument: N#CC1(c2ccc(NC(=O)c3cccnc3NCc3ccncc3)cc2)CCCC1 [Rivoceranib]
// result 2.8

---

assay: Phase 1 single-dose plasma pharmacokinetics in subjects with normal hepatic function, mild or moderate hepatic impairment; assay type: in vivo, human; settings: human, plasma, po, 200 mg, Mild Hepatic Impairment; 0.5 h; 200 mg single oral dose; read-out: Plasma concentration, Median
READOUT KIND: concentration at 0.5 h (ng/mL)
Supply the numeric figure in ng/mL, leaving out any unit text.

// query Return reported concentration at 0.5 h; argument: `N#CC1(c2ccc(NC(=O)c3cccnc3NCc3ccncc3)cc2)CCCC1`
// result 30.2

---

assay: Phase 1 study: unbound plasma concentration and fraction unbound (protein binding); assay type: in vivo, human; conditions: human, plasma, po, 200 mg, Moderate Hepatic Impairment; 4 h; 200 mg single oral dose; read-out: Unbound Concentration, Geometric Mean
READOUT KIND: concentration at 4 h (ng/mL)
Supply the numeric figure in ng/mL, leaving out any unit text.

// query Return reported concentration at 4 h; argument: `N#CC1(c2ccc(NC(=O)c3cccnc3NCc3ccncc3)cc2)CCCC1`
// result 4.52

---

assay: Phase 1 single-dose plasma pharmacokinetics in subjects with normal hepatic function, mild or moderate hepatic impairment; assay type: in vivo, human; details: human, plasma, po, 200 mg, Moderate Hepatic Impairment; 200 mg single oral dose; read-out: tmax, Median
READOUT KIND: Tmax

// query Return reported Tmax; argument: `N#CC1(c2ccc(NC(=O)c3cccnc3NCc3ccncc3)cc2)CCCC1`
// result 2 h

---

experiment: Phase 1 single-dose plasma pharmacokinetics in subjects with normal hepatic function, mild or moderate hepatic impairment; assay type: in vivo, human; conditions: human, plasma, po, 200 mg, Normal Hepatic Function; 0.5 h; 200 mg single oral dose; read-out: Plasma concentration, Geometric Mean
READOUT KIND: concentration at 0.5 h

// query Return reported concentration at 0.5 h; argument: N#CC1(c2ccc(NC(=O)c3cccnc3NCc3ccncc3)cc2)CCCC1 [Rivoceranib]
// result 15.2 ng/mL

---

assay: Phase 1 single-dose plasma pharmacokinetics in subjects with normal hepatic function, mild or moderate hepatic impairment; type: in vivo, human; conditions: human, plasma, po, 200 mg, Moderate Hepatic Impairment; 4 h; 200 mg single oral dose; read-out: Plasma concentration, Median
READOUT KIND: concentration at 4 h (µg/mL)
Supply the numeric figure in µg/mL, leaving out any unit text.

// query Return reported concentration at 4 h; argument: `N#CC1(c2ccc(NC(=O)c3cccnc3NCc3ccncc3)cc2)CCCC1`
// result 0.132

---

experiment: Phase 1 study: unbound plasma concentration and fraction unbound (protein binding); assay type: in vivo, human; settings: human, plasma, po, 200 mg, Mild Hepatic Impairment; 4 h; 200 mg single oral dose; read-out: Unbound Concentration, Median
READOUT KIND: concentration at 4 h (ng/mL)
Supply the numeric figure in ng/mL, leaving out any unit text.

// query Return reported concentration at 4 h; argument: `N#CC1(c2ccc(NC(=O)c3cccnc3NCc3ccncc3)cc2)CCCC1`
// result 2.37

---

assay: Phase 1 single-dose plasma pharmacokinetics in subjects with normal hepatic function, mild or moderate hepatic impairment; type: in vivo, human; details: human, plasma, po, 200 mg, Moderate Hepatic Impairment; 8 h; 200 mg single oral dose; read-out: Plasma concentration, Geometric Mean
READOUT KIND: concentration at 8 h
Give me the value, and tack the unit on after it.

// query Return reported concentration at 8 h; argument: N#CC1(c2ccc(NC(=O)c3cccnc3NCc3ccncc3)cc2)CCCC1 [Rivoceranib]
// result 80.3 ng/mL
